Molecular target: human FXR (Homo sapiens)
Construct: expressed in transfected cells
Assay: FXR reporter assay (cellular FXR activities)
Format: cell-based
Conditions: read-out: Emax (%) (GW4064 Emax = 100%)
Structures can show the parent of a compound that is named as a salt.
readout-name: Emax (%)

compound="O=C(O)c1cc(C#Cc2ccc(OCc3c(-c4c(Cl)cccc4Cl)noc3C3CC3)cc2Cl)cc(N2CCOC2=O)c1 [Compound I-83]" experimental_target="human FXR (Homo sapiens)" readout_name=Emax value_comparator== recorded_measurement=89
compound="O=C(O)c1cc(C#Cc2ccc(OCc3c(-c4c(Cl)cccc4Cl)noc3C3CC3)cc2Cl)ccc1F [Compound I-37]" experimental_target="human FXR (Homo sapiens)" readout_name=Emax value_comparator== recorded_measurement=94
compound="O=C(O)c1cccc(C#Cc2ccc(OCc3c(-c4c(Cl)cccc4Cl)noc3C3CC3)cc2Cl)n1 [Compound I-19]" experimental_target="human FXR (Homo sapiens)" readout_name=Emax value_comparator== recorded_measurement=99
compound="O=C(O)c1cc(C#Cc2ccc(OCc3c(-c4c(Cl)cccc4Cl)noc3C3CC3)cc2Cl)cc(CN2CCC2)c1 [Compound I-43]" experimental_target="human FXR (Homo sapiens)" readout_name=Emax value_comparator=> recorded_measurement=100
compound="CC(C)c1nc2c(C(=O)O)cc(C#Cc3ccc(OCc4c(-c5c(Cl)cccc5Cl)noc4C4CC4)cc3Cl)cc2o1 [Compound I-115]" experimental_target="human FXR (Homo sapiens)" readout_name=Emax value_comparator== recorded_measurement=97
compound="O=C(O)c1ccc(C#Cc2ccc(OCc3c(-c4c(Cl)cccc4Cl)noc3C3CC3)cc2)cc1 [Compound I-1]" experimental_target="human FXR (Homo sapiens)" readout_name=Emax value_comparator=> recorded_measurement=100
compound="O=C(O)c1cc(C#Cc2ccc(OCc3c(-c4c(Cl)cccc4Cl)noc3C3CC3)cc2Cl)c2ccn(CCN3CCOCC3)c2c1 [Compound I-95, hydrochloride]" experimental_target="human FXR (Homo sapiens)" readout_name=Emax value_comparator=> recorded_measurement=100

* * *

Target: human FXR (Homo sapiens, UniProt Q96RI1)
Construct: expressed in transfected cells
Assay: FXR reporter assay (cellular FXR activities)
Assay type: cell-based
Details: read-out: Emax (%) (GW4064 Emax = 100%)
readout-name: Emax (%)

compound="O=C(O)c1cc(C#Cc2ccc(OCc3c(-c4c(Cl)cccc4Cl)noc3C3CC3)cc2Cl)cc(CNCC(F)(F)F)c1 [Compound I-46]" measurement_units=% value_comparator== recorded_measurement=99
compound="CCOC(=O)N(C)c1cc(C#Cc2ccc(OCc3c(-c4c(Cl)cccc4Cl)noc3C3CC3)cc2Cl)cc(C(=O)O)c1 [Compound I-75]" measurement_units=% value_comparator== recorded_measurement=93
compound="O=C(O)c1cc(C#Cc2ccc(OCc3c(-c4c(Cl)cccc4Cl)noc3C3CC3)cc2Cl)cc(CNC2COC2)c1 [Compound I-51]" measurement_units=% value_comparator== recorded_measurement=75
compound="CC(=O)Nc1cc(C#Cc2ccc(OCc3c(-c4c(Cl)cccc4Cl)noc3C3CC3)cc2Cl)cc(C(=O)O)c1 [Compound I-73]" measurement_units=% value_comparator=> recorded_measurement=100

* * *

Emax listing for selected compounds.
Biological target: human FXR (Homo sapiens)
Construct: expressed in transfected cells
Sequence (Q96RI1 1-486): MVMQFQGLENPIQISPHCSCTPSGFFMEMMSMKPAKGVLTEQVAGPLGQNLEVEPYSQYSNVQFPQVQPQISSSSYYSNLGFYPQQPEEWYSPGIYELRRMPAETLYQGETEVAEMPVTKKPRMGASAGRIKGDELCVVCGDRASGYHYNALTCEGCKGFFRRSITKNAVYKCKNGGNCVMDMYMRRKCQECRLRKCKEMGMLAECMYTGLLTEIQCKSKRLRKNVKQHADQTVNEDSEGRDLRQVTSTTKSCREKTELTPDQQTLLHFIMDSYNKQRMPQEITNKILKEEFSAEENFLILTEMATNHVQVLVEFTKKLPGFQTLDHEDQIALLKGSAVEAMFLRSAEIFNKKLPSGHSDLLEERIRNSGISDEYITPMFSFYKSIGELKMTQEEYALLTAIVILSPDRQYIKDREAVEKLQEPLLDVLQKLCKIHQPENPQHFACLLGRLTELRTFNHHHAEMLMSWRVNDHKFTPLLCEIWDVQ
Assay: FXR reporter assay (cellular FXR activities)
Assay type: cell-based
Settings: read-out: Emax (%) (GW4064 Emax = 100%)
readout-name: Emax (%)

cpd_smiles=CCOC(=O)Nc1cccc(C#Cc2ccc(OCc3c(-c4c(Cl)cccc4Cl)noc3C3CC3)cc2Cl)c1 readout_name=Emax value_comparator== recorded_measurement=90
cpd_smiles=O=C(O)c1cccc(C#Cc2ccc(OCc3c(-c4c(Cl)cccc4Cl)noc3C3CC3)cc2Cl)c1F readout_name=Emax value_comparator== recorded_measurement=93
cpd_smiles=CN(C)c1cc(C#Cc2ccc(OCc3c(-c4c(Cl)cccc4Cl)noc3C3CC3)cc2Cl)cc(C(=O)O)c1 readout_name=Emax value_comparator== recorded_measurement=92
cpd_smiles=O=C(O)c1ccc(F)c(C#Cc2ccc(OCc3c(-c4c(Cl)cccc4Cl)noc3C3CC3)cc2Cl)c1 readout_name=Emax value_comparator== recorded_measurement=92
cpd_smiles=O=C(O)c1cc(C#Cc2ccc(OCc3c(-c4c(Cl)cccc4Cl)noc3C3CC3)cc2Cl)cc(CNC2CC2)c1 readout_name=Emax value_comparator=> recorded_measurement=100
cpd_smiles=CC(C)Nc1cc(C#Cc2ccc(OCc3c(-c4c(Cl)cccc4Cl)noc3C3CC3)cc2Cl)cc(C(=O)O)c1 readout_name=Emax value_comparator=> recorded_measurement=100
cpd_smiles=O=C(O)c1cc(C#Cc2ccc(OCc3c(-c4c(Cl)cccc4Cl)noc3C3CC3)cc2Cl)cc(CN2CCOCC2)c1 readout_name=Emax value_comparator=> recorded_measurement=100
